The values you see were collected from ChEMBL document CHEMBL5131515.

biological target: CYP2C19 (Homo sapiens, UniProt P33261); assay: Inhibition of CYP2C19 (unknown origin) assessed as remaining activity at 10 uM relative to control; assay type: ADME; settings: read-out: Activity
Sequence (P33261 whole entry): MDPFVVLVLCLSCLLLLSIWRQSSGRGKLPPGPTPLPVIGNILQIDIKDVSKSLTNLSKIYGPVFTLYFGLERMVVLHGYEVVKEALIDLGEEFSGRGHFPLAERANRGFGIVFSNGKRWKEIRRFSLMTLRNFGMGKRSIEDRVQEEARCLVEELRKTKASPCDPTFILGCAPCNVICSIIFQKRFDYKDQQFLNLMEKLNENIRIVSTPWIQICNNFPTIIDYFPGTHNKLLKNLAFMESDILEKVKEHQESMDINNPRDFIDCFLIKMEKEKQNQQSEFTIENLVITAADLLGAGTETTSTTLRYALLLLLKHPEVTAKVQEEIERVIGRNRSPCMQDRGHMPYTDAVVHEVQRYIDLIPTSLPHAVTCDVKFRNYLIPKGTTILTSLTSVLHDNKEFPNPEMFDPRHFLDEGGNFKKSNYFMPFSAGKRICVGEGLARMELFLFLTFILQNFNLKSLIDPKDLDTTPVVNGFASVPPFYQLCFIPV
Entries and their activity at 10 µM values follow.
measure: activity at 10 µM

1. COc1cc(OC)c(Cl)c(Nc2ncccc2-c2ncnc(Nc3ccc(N4C[C@@H](C)N[C@@H](C)C4)cc3)n2)c1Cl :: 31.8%
2. CCN1CCN(c2ccc(Nc3cc(N(C)C(=O)Nc4c(Cl)c(OC)cc(OC)c4Cl)ncn3)cc2)CC1 :: 64.9%
3. COc1cc(OC)c(Cl)c(Nc2ncccc2-c2ncnc(Nc3cnn(C4CCN(C(C)C)CC4)c3)n2)c1Cl :: 44.6%
4. COc1cc(OC)c(Cl)c(Nc2ncccc2-c2ncnc(Nc3cnn(C4CCNCC4)c3)n2)c1Cl :: 51%

====

biological target: CYP3A4 (Homo sapiens); test: Inhibition of CYP3A4 (unknown origin) assessed as remaining activity at 10 uM relative to control; format: ADME; settings: read-out: Activity
Sequence (P08684 whole entry): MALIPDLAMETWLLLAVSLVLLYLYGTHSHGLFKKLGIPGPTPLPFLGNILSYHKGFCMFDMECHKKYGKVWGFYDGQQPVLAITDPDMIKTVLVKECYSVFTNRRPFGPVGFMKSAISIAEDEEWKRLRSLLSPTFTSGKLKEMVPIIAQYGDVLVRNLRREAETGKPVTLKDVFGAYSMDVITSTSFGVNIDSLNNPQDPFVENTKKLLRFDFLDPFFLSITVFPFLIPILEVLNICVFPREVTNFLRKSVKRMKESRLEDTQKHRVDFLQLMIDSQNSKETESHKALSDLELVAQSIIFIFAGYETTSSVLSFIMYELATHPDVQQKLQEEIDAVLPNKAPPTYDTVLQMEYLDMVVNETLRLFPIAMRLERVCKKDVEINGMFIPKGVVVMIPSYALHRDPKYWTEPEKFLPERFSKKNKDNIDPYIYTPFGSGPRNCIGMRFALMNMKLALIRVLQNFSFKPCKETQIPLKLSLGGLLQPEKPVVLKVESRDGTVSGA
activity at 10 µM values by entry
measure: activity at 10 µM (%)

1. COc1cc(OC)c(Cl)c(Nc2ncccc2-c2ncnc(Nc3cnn(C4CCN(C(C)C)CC4)c3)n2)c1Cl :: 17.6
2. COc1cc(OC)c(Cl)c(Nc2ncccc2-c2ncnc(Nc3cnn(C4CCNCC4)c3)n2)c1Cl :: 44.1
3. COc1cc(OC)c(Cl)c(Nc2ncccc2-c2ncnc(Nc3ccc(N4C[C@@H](C)N[C@@H](C)C4)cc3)n2)c1Cl :: 13.3
4. CCN1CCN(c2ccc(Nc3cc(N(C)C(=O)Nc4c(Cl)c(OC)cc(OC)c4Cl)ncn3)cc2)CC1 :: 83

====

assay: Stability in mouse liver microsomes assessed as parent compound remaining at 1 uM incubated for 30 mins; assay type: ADME, Microsome; details: read-out: Stability
Recorded remaining at 0.5 h, 1 µM for the following compounds
measure: remaining at 0.5 h, 1 µM (%)

1. COc1cc(OC)c(Cl)c(Nc2ncccc2-c2ncnc(Nc3cnn(C4CCNCC4)c3)n2)c1Cl :: 62.1
2. COc1cc(OC)c(Cl)c(Nc2ncccc2-c2ncnc(Nc3ccc(N4C[C@@H](C)N[C@@H](C)C4)cc3)n2)c1Cl :: 44.8
3. COc1cc(OC)c(Cl)c(Nc2ncccc2-c2ncnc(Nc3cnn(C4CCN(C(C)C)CC4)c3)n2)c1Cl :: 11.5
4. CCN1CCN(c2ccc(Nc3cc(N(C)C(=O)Nc4c(Cl)c(OC)cc(OC)c4Cl)ncn3)cc2)CC1 :: 22.3

====

test: Antiproliferative activity against mouse BaF3 cells assessed as cell growth inhibition by CellTiter-Glo assay; conditions: BaF3 cells
Overview of reported GI50 across a group of molecules:
measure: GI50

1. CCN1CCN(c2ccc(Nc3cc(-c4cccnc4Nc4c(Cl)c(OC)cc(OC)c4Cl)ncn3)cc2)CC1 :: 3.25 µM
2. COc1ccccc1Nc1ncnc(-c2cccnc2Nc2c(Cl)c(OC)cc(OC)c2Cl)n1 :: > 5 µM
3. COc1cc(OC)c(Cl)c(Nc2ncccc2-c2ncnc(Nc3cnn(CCCN(C)C)c3)n2)c1Cl :: 2.73 µM
4. COc1cc(OC)c(Cl)c(Nc2ncccc2-c2ncnc(Nc3cnn(C)c3)n2)c1Cl :: > 5 µM
5. COc1cc(OC)c(Cl)c(Nc2ncccc2-c2ncnc(Nc3cnn(C4CCNCC4)c3)n2)c1Cl :: > 5 µM
